target-or-test-system: Carnitine O-palmitoyltransferase 1, muscle isoform (Rattus norvegicus)
Sequence (Q63704 whole entry): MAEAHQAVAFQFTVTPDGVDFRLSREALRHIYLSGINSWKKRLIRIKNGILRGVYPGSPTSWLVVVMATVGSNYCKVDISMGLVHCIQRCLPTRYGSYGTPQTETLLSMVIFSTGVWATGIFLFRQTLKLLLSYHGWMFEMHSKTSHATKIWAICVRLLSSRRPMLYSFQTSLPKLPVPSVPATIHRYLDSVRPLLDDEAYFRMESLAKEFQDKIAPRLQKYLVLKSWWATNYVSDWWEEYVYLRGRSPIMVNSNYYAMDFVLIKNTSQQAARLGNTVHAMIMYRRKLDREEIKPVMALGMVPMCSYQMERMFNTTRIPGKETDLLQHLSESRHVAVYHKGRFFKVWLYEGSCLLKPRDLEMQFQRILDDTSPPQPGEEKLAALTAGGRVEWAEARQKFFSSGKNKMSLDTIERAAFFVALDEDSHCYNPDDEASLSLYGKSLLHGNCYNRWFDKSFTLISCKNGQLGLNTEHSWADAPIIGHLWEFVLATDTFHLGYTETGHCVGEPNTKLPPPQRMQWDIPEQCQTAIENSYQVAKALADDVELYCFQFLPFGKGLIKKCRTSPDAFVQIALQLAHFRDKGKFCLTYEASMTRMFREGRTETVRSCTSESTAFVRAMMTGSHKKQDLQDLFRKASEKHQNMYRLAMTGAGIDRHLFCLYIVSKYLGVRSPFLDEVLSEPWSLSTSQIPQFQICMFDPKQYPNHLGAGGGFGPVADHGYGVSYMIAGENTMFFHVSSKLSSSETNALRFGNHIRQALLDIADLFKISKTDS
run-description: In vitro inhibition of [14C]palmitoyl-CoA and carnitine binding to carnitine palmitoyltransferase I of rat heart mitochondria
For each of the molecules below, state its IC50.

QUERY: Which value of IC50 has been reported for "CCCCCCCCCNC(=O)N[C@H](CC(=O)[O-])C[N+](C)(C)C" in the records?
RESULT: > 300 µM

QUERY: Which value of IC50 has been reported for "CCCCCCCCCCCCNC(=O)N[C@@H](CC(=O)[O-])C[N+](C)(C)C" in the records?
RESULT: > 120 µM

QUERY: Which value of IC50 has been reported for "CCCCCCCCOC(=O)N[C@H](CC(=O)[O-])C[N+](C)(C)C" in the records?
RESULT: > 300 µM

QUERY: Which value of IC50 has been reported for "CCCCCCCNC(=O)N[C@@H](CC(=O)[O-])C[N+](C)(C)C" in the records?
RESULT: > 300 µM

QUERY: Which value of IC50 has been reported for "CCCCCCCCCCCCS(=O)(=O)N[C@H](CC(=O)[O-])C[N+](C)(C)C" in the records?
RESULT: > 10 µM
